System: C57BL/6J mice
Test summary: In vivo expression by IM, luciferase RNA-LNPs, whole-body/injection site muscle/organ luminescence
Experimental setup: IM 1.0 mg/kg, 24 h post injection, male C57BL/6J mice N=3, Formulation 001, RNA 331
Whole body (p/s): recorded values
Enter your answer as a number in p/s; do not include the unit.

See these solved cases before continuing.
Note to self: Whole body (p/s) recorded for CCCCCCCC/C=C\CCCCCCCC(=O)NC(COC(=O)NCCN1CCCCCC1)C(=O)OCCCCCCCCOC(=O)C(CCCCCC)CCCCCCCC (stereo not shown) [Lipid 701] was 8.27E+08

Note to self: Whole body (p/s) recorded for CCCCC/C=C\C/C=C\CCCCCCCC(=O)NC(COC(=O)NCCN1CCCCC1)C(=O)OCCCCCC(=O)OCC(CCCCCCCC)CCCCCCCCCC (stereo not shown) [Lipid 728] was 6.11E+08

Note to self: Whole body (p/s) recorded for CCCCC/C=C\C/C=C\CCCCCCCC(=O)NC(COC(=O)NCCN1CCCCC1)C(=O)OCCCCCCCC(=O)OC(CCCCCCCC)CCCCCCCC (stereo not shown) [Lipid 549] was 1.10E+09

Kindly review the next molecule as well.
Note to self: Whole body (p/s) recorded for CCCCCCCC/C=C\CCCCCCCC(=O)NC(COC(=O)NCCN1CCCCC1)C(=O)OCCCCCCCCOC(=O)C(CCCCCC)CCCCCCCC (stereo not shown) [Lipid 700] was 5.65E+08

src = patent US20260200849A1
